System: HIV-1ROJO
Experiment: Anti-HIV PBMC assay (reverse transcriptase activity in supernatant)
Details: HIV-1ROJO in PBMCs
EXPERIMENTAL_READOUT: TI (therapeutic index, TC50/IC50)

INPUT: Please give the documented TI (therapeutic index, TC50/IC50) of C=CCO/N=C1/[C@@H](OC)C[C@H](C)CC2=C(NC(=O)c3ccccc3)C(=O)C=C(NC(=O)/C(C)=C/C=C\[C@H](OC)[C@@H](OC(N)=O)/C(C)=C/[C@@H]1C)C2=O (stereo in doubt)
OUTPUT: 14.5

INPUT: Please give the documented TI (therapeutic index, TC50/IC50) of Cc1cn([C@H]2C[C@H](N=[N+]=[N-])[C@@H](CO)O2)c(=O)[nH]c1=O [AZT Control, reference compound]
OUTPUT: >197.6

INPUT: Please give the documented TI (therapeutic index, TC50/IC50) of COC1C=CC=C(C)C(=O)NC2=CC(=O)C(NCCCN(C)CCCNC3=C4CC(C)CC(OC)C(O)C(C)C=C(C)C(OC(N)=O)C(OC)C=CC=C(C)C(=O)NC(=CC3=O)C4=O)=C(CC(C)CC(OC)C(O)C(C)C=C(C)C1OC(N)=O)C2=O (stereo not shown)
OUTPUT: 38.6

INPUT: Please give the documented TI (therapeutic index, TC50/IC50) of "CO[C@H]1/C=C\C=C(/C)C(=O)NC2=CC(=O)C(NC(=O)OCC(C)C)=C(C[C@@H](C)C[C@H](OC)[C@H](O)[C@@H](C)/C=C(\C)[C@@H]1OC(N)=O)C2=O"
OUTPUT: 56.0

---

Tested on: HIV-1ROJO
Assay: Anti-HIV PBMC assay (reverse transcriptase activity in supernatant)
Settings: read-out: IC50 (μM) (50% inhibition of virus replication); HIV-1ROJO in fresh human PBMCs, 7 days
Give IC50 for every item shown.
The reply should contain only the number, in µM.

INPUT: Please give the documented IC50 of COC1C=CC=C(C)C(=O)NC2=CC(=O)C(NCCCN(C)CCCNC3=C4CC(C)CC(OC)C(O)C(C)C=C(C)C(OC(N)=O)C(OC)C=CC=C(C)C(=O)NC(=CC3=O)C4=O)=C(CC(C)CC(OC)C(O)C(C)C=C(C)C1OC(N)=O)C2=O (stereo not drawn)
OUTPUT: 0.007

INPUT: Please give the documented IC50 of Cc1cn([C@H]2C[C@H](N=[N+]=[N-])[C@@H](CO)O2)c(=O)[nH]c1=O [AZT Control, reference compound]
OUTPUT: 0.0051

INPUT: Please give the documented IC50 of "CO[C@H]1/C=C\C=C(/C)C(=O)NC2=CC(=O)C(NC(=O)OCC(C)C)=C(C[C@@H](C)C[C@H](OC)[C@H](O)[C@@H](C)/C=C(\C)[C@@H]1OC(N)=O)C2=O"
OUTPUT: 0.02

---

System: PBMC
Assay: MTS assay to measure cytotoxicity of PBMC
Assay type: cell-based, human
Settings: PBMCs without virus, read-out: TC50 (μM) (50% cytotoxicity)
EXPERIMENTAL_READOUT: CC50

INPUT: Please give the documented CC50 of Cc1cn([C@H]2C[C@H](N=[N+]=[N-])[C@@H](CO)O2)c(=O)[nH]c1=O [AZT Control, reference compound]
OUTPUT: > 1 µM
